target_of_assay: 72 kDa type IV collagenase (Homo sapiens, UniProt P08253)
Sequence (P08253 110-660 limits assumed): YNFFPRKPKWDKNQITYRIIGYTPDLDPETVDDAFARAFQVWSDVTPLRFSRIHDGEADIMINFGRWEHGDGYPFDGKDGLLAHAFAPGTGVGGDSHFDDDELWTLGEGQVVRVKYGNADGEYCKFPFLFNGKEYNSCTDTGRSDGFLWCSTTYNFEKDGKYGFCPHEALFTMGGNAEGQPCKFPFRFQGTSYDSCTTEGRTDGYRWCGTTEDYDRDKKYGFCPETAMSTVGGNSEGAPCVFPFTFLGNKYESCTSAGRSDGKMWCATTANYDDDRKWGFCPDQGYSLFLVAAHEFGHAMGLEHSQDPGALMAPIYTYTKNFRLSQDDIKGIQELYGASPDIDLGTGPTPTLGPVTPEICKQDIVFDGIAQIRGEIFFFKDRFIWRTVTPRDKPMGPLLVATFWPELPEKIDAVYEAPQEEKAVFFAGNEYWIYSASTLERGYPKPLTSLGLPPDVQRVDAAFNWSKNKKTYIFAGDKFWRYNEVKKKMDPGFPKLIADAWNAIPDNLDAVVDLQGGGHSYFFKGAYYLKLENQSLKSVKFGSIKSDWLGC
assay_notes: Inhibition of human MMP-2 at 100 uM relative to control
In this section we review reported inhibition values for a set of compounds.

- molecular_string: "O=C(CCS)Nc1ccc(Cl)c(Cl)c1"
  value_prefix: "="
  inhibition / %: 14
- molecular_string: "O=C(CCS)Nc1cccc(C(=O)O)c1"
  value_prefix: "<"
  inhibition / %: 10
- molecular_string: "O=C(CCS)Nc1ccccc1C(=O)O"
  value_prefix: "<"
  inhibition / %: 10
- molecular_string: "N=C(N)NS(=O)(=O)c1ccc(NC(=O)CCS)cc1"
  value_prefix: "<"
  inhibition / %: 10
- molecular_string: "NC(=O)NS(=O)(=O)c1ccc(NC(=O)CCS)cc1"
  value_prefix: "="
  inhibition / %: 88

###

assay_notes: Inhibition of Escherichia coli IMP-7 using fluorocillin as substrate incubated for 30 mins by fluorescence based assay
Lab note: class by IC50, see low (below 3 µM), moderate (3 µM to below 6 µM), high (6 µM or more)

- compound: "NC(=O)NS(=O)(=O)c1ccc(NC(=O)CCS)cc1"
  class_label: "high"
- compound: "O=C(CCS)Nc1ccc(C(=O)O)cc1"
  class_label: "high"
- compound: "CS(=O)(=O)Nc1ccccc1NC(=O)CCS"
  class_label: "high"
- compound: "O=C(CCS)Nc1cccc([N+](=O)[O-])c1"
  class_label: "low"
- compound: "CN1CCN(Cc2ccc(NC(=O)CCS)cc2)CC1"
  class_label: "moderate"
- compound: "O=C(CCS)Nc1ccc(Cl)c(Cl)c1"
  class_label: "moderate"
- compound: "O=C(O)[C@H]1CCCCN1C(=O)C(CS)Cc1ccccc1 (some centres undefined)"
  class_label: "moderate"
- compound: "O=C(CCS)Nc1ccc(O)cc1"
  class_label: "moderate"
- compound: "O=C(CCS)Nc1ccc(S(=O)(=O)N2CCOCC2)cc1"
  class_label: "high"
- compound: "COC(=O)c1ccc(NC(=O)CCS)cc1"
  class_label: "low"
- compound: "O=C(CCS)Nc1ccccc1C(=O)O"
  class_label: "moderate"
- compound: "Nc1ccc(NC(=O)CCS)cc1"
  class_label: "low"
- compound: "NCc1cccc(NC(=O)CCS)c1"
  class_label: "moderate"
- compound: "O=C(CCS)Nc1cccc(C(=O)O)c1"
  class_label: "high"

###

target_of_assay: Disintegrin and metalloproteinase domain-containing protein 17 (Homo sapiens) (UniProt P78536)
Sequence (P78536 whole entry, the tested form may be a part): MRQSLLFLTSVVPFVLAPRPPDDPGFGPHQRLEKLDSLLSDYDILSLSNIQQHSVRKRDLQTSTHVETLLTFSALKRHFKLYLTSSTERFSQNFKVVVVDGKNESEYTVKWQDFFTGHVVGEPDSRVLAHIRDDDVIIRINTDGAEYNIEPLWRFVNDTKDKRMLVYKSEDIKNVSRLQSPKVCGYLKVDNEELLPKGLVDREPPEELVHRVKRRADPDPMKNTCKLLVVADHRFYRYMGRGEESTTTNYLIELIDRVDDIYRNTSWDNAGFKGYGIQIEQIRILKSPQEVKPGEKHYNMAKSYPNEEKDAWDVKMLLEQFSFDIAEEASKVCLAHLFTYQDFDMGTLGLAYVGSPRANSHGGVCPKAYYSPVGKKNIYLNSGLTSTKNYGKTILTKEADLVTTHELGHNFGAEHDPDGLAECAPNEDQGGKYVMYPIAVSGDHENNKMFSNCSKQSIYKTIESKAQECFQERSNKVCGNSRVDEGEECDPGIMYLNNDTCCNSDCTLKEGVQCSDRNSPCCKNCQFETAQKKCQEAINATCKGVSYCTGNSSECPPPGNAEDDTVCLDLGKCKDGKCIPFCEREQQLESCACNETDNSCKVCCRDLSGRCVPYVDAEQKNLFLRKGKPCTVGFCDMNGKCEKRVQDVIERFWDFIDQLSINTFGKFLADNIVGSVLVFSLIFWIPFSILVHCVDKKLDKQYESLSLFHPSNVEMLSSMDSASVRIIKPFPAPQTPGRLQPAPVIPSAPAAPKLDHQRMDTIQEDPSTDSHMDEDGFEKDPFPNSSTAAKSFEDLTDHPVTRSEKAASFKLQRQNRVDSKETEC
assay_notes: Inhibition of human TACE at 100 uM relative to control
In this section we review reported inhibition values for a set of compounds.
measure: inhibition

- molecular_string: "N=C(N)NS(=O)(=O)c1ccc(NC(=O)CCS)cc1"
  measure: "inhibition"
  reported: "32%"
- molecular_string: "NC(=O)NS(=O)(=O)c1ccc(NC(=O)CCS)cc1"
  measure: "inhibition"
  reported: "< 10%"
- molecular_string: "O=C(CCS)Nc1ccccc1C(=O)O"
  measure: "inhibition"
  reported: "< 10%"
- molecular_string: "O=C(CCS)Nc1cccc(C(=O)O)c1"
  measure: "inhibition"
  reported: "< 10%"

###

assay_notes: Inhibition of Escherichia coli IMP-7 using fluorocillin as substrate incubated for 30 mins by fluorescence based assay
In this section we review reported IC50 values for a set of molecules.
measure: IC50 (µM)

- molecular_string: "COC(=O)c1ccccc1NC(=O)CCS"
  measure: "IC50"
  reported: 1
- molecular_string: "CCN(CC)Cc1cccc(NC(=O)CCS)c1"
  measure: "IC50"
  reported: 5.5
- molecular_string: "O=C(CCS)Nc1cccc(S(=O)(=O)O)c1"
  measure: "IC50"
  reported: 3.6
- molecular_string: "N=C(N)NS(=O)(=O)c1ccc(NC(=O)CCS)cc1"
  measure: "IC50"
  reported: 3.3
- molecular_string: "O=C(CCS)Nc1cccc(O)c1"
  measure: "IC50"
  reported: 1.4
- molecular_string: "CN(C)S(=O)(=O)c1ccc(NC(=O)CCS)cc1"
  measure: "IC50"
  reported: 2.1
- molecular_string: "O=C(CCS)Nc1ccccc1O"
  measure: "IC50"
  reported: 3.3
- molecular_string: "CC(=O)c1ccc(NC(=O)CCS)cc1"
  measure: "IC50"
  reported: 5.5
